Test: clinical
Details: human, in vivo, iv, Vdss
Give measured Vd for each item. Keep answers brief.
# number only, unit L/kg dropped from output

Query COC(=O)C1=C(C)NC(C)=C(C(=O)OCC(C)C)C1c1ccccc1[N+](=O)[O-] (centres undefined) yields Vd of 5.5

Query `CCCc1nn(C)c2c(=O)[nH]c(-c3cc(S(=O)(=O)N4CCN(C)CC4)ccc3OCC)nc12` yields Vd of 1.4

Query CC(C)NCC(O)COc1cccc2ccccc12 (centres undefined) yields Vd of 3.1

Query `C[C@H](N[C@@H](CCc1ccccc1)C(=O)O)C(=O)N1Cc2ccccc2C[C@H]1C(=O)O` yields Vd of 0.13

Query CCCC(C)C1(CC)C(=O)NC(=S)NC1=O (centres undefined) yields Vd of 1.2

Query C[C@@H]1C(=O)O[C@H]2C[C@@]34[C@H]5C[C@@H](C(C)(C)C)[C@]36[C@@H](OC(=O)[C@@H]6O)O[C@@]4(C(=O)O5)[C@]21O [GINKGOLIDE A] yields Vd of 0.62

Query `Nc1nc(NC2CC2)c2ncn([C@H]3C=C[C@@H](CO)C3)c2n1` yields Vd of 0.84

Query NC(=O)CN1CC(O)CC1=O (centres undefined) yields Vd of 0.55

Query `Cc1ccc(O)c([C@H](CCN(C(C)C)C(C)C)c2ccccc2)c1` yields Vd of 1.5

---

Assay: clinical
Details: human, in vivo, iv
Give measured MRT for each item. Keep answers brief.
# number only, unit h dropped from output

Query `CC(=O)OCC1=C(C(=O)O)N2C(=O)[C@@H](NC(=O)CSc3ccncc3)[C@H]2SC1` yields MRT of 0.8

Query C[C@@H](O)[C@H]1C(=O)N2C(C(=O)[O-])=C(SC3Cn4cnc[n+]4C3)[C@H](C)[C@H]12 (some centres undefined) yields MRT of 1.3

Query `Cc1ccc(-c2nc3ccc(C)cn3c2CC(=O)N(C)C)cc1` yields MRT of 2.1

Query `Cc1cccc(C)c1NC(=O)NCCCNC(C)C` yields MRT of 5.2

Query `COc1nc(C)nc(Cl)c1N=C1NCCN1` yields MRT of 2.7

Query NS(=O)(=O)c1cc2c(cc1C(F)(F)F)NCNS2(=O)=O [HYDROFLUMETHIAZIDE] yields MRT of 3.8

Query O=C1c2ccccc2S(=O)(=O)N1CCCCNC[C@H]1CCc2ccccc2O1 [REPINOTAN] yields MRT of 1.6

Query `CC1(C)C[C@@H]1C(=O)N/C(=C\CCCCSC[C@H](N)C(=O)O)C(=O)O` yields MRT of 1.1

Query CCN(CC)CCNC(=O)c1cc(Cl)c(N)cc1OC [METOCLOPRAMIDE] yields MRT of 9.4

---

Experiment: clinical
Settings: human, in vivo, iv, CL
Give measured clearance for each item. Keep answers brief.
# number only, unit mL/min/kg dropped from output

Query `O=c1[nH]c2ccccc2n1CCCN1CCC(n2c(=O)[nH]c3cc(Cl)ccc32)CC1` yields clearance of 9.5

Query CC[C@H](OC(C)=O)C(C[C@H](C)N(C)C)(c1ccccc1)c1ccccc1 [LEVOMETHADYL ACETATE] yields clearance of 5.4

Query COCC(=O)Nc1c(I)c(C(=O)NCC(O)CO)c(I)c(C(=O)N(C)CC(O)CO)c1I (centres undefined) [IOPROMIDE] yields clearance of 1.4

Query CCCC(C)(COC(N)=O)COC(N)=O [MEPROBAMATE] yields clearance of 0.6

Query `COc1ccc2c3c1O[C@H]1[C@@H](O)C=C[C@H]4[C@@H](C2)N(C)CC[C@@]341` yields clearance of 15

Query O=C([O-])[O-].[Li+].[Li+] [LITHIUM CARBONATE] yields clearance of 1.3

Query CC(C)(C)NCC(O)c1cc(O)cc(O)c1 (centres undefined) yields clearance of 3.4

Query Cc1cccc(C)c1OCC(C)N (centres undefined) yields clearance of 8.3

Query `O=c1n(CCCN2CCN(c3cccc(Cl)c3)CC2)nc2ccccn12` yields clearance of 1.4

Query COc1cc(NCc2ccc3nc(N)nc(N)c3c2C)cc(OC)c1OC [TRIMETREXATE] yields clearance of 0.77

Query `C[C@@H]1C[C@H]2[C@@H]3CCC4=CC(=O)C=C[C@]4(C)[C@@]3(F)[C@@H](O)C[C@]2(C)[C@@]1(O)C(=O)CO` yields clearance of 3.3

Query C=CC[C@@H]1/C=C(\C)C[C@H](C)C[C@H](OC)[C@H]2O[C@@](O)(C(=O)C(=O)N3CCCC[C@H]3C(=O)O[C@H](/C(C)=C/[C@@H]3CC[C@@H](O)[C@H](OC)C3)[C@H](C)[C@@H](O)CC1=O)[C@H](C)C[C@@H]2OC [TACROLIMUS ANHYDROUS] yields clearance of 0.7

Query `O=C(O)c1cc(-c2ccc(F)cc2F)ccc1O` yields clearance of 0.1

Query `CN(C)CCc1c[nH]c2ccc(C[C@H]3COC(=O)N3)cc12` yields clearance of 6.7

Query `COc1ccc(Cc2nccc3cc(OC)c(OC)cc23)cc1OC` yields clearance of 11

Query CC(=O)N(CC(O)CO)c1c(I)c(C(=O)NCC(O)CO)c(I)c(C(=O)NCC(O)CO)c1I (centres undefined) [IOHEXOL] yields clearance of 2

Query CN1CCN2c3ncccc3Cc3ccccc3C2C1 (centres undefined) yields clearance of 8

Query `CN(C)[C@@H]1C(O)=C(C(N)=O)C(=O)[C@@]2(O)C(O)=C3C(=O)c4c(O)ccc(Cl)c4[C@@H](O)[C@H]3C[C@@H]12` yields clearance of 1.1

Query `CN(C)[C@@H]1C(O)=C(C(N)=O)C(=O)[C@@]2(O)C(O)=C3C(=O)c4c(O)cccc4[C@@](C)(O)[C@H]3C[C@@H]12` yields clearance of 1.5

Query COc1ccc2cc1Oc1cc3c(cc1OC)CC[N+](C)(C)[C@H]3Cc1ccc(cc1)Oc1c(OC)c(OC)cc3c1[C@@H](C2)[N+](C)(C)CC3.[I-].[I-] [METOCURINE IODIDE] yields clearance of 1.2

Query `Nc1c(CC(=O)O)cccc1C(=O)c1ccc(Br)cc1` yields clearance of 1.3

Query `CN(C)CCCN1c2ccccc2Sc2ccc(Cl)cc21` yields clearance of 16

Query `CO[C@H]1/C=C/O[C@@]2(C)Oc3c(C)c(O)c4c(c3C2=O)C2=NC3(CCN(CC(C)C)CC3)NC2=C(NC(=O)/C(C)=C\C=C\[C@H](C)[C@H](O)[C@@H](C)[C@@H](O)[C@@H](C)[C@H](OC(C)=O)[C@@H]1C)C4=O` yields clearance of 2.4

Query `CO/N=C(\C(=O)N[C@@H]1C(=O)N2C(C(=O)O)=C(CSc3nc(C)c(CC(=O)O)s3)CS[C@H]12)c1csc(N)n1` yields clearance of 0.61

Query CN1C2CCCC1CC(NC(=O)c1nn(C)c3ccccc13)C2 (centres undefined) yields clearance of 9.1

Query `CC1(C)S[C@@H]2[C@H](NC(=O)[C@H](NC(=O)N3CCN(S(C)(=O)=O)C3=O)c3ccccc3)C(=O)N2[C@H]1C(=O)O` yields clearance of 2.1

Query `Cc1ccc(C(=O)c2cc(O)c(O)c([N+](=O)[O-])c2)cc1` yields clearance of 1.9

Query `CO[C@H]1C[C@@H]2CC[C@@H](C)[C@@](O)(O2)C(=O)C(=O)N2CCCC[C@H]2C(=O)O[C@H]([C@H](C)C[C@@H]2CC[C@@H](OC(=O)C(C)(CO)CO)[C@H](OC)C2)CC(=O)[C@H](C)/C=C(\C)[C@@H](O)[C@@H](OC)C(=O)[C@H](C)C[C@H](C)/C=C/C=C/C=C/1C` yields clearance of 7.7

Query CN(C)CCC(c1ccc(Cl)cc1)c1ccccn1 (centres undefined) yields clearance of 2.5
